Assay: Pharmacokinetics (biodistribution 1-24 h) in non-tumor bearing mice
Type: in vivo
Conditions: female, BALB/c, mouse, blood, 200 umol, total radioactivity; 24 hours after injection, ^64Cu; read-out: Biodistribution Blood
Method: The biodistribution at the investigate time points was performed as described in the Example 9. The data were combined with the results obtained from the groups of xenografts at 1 hour and 4 hours p.i., as the biodistribution in nude mice was the same as in the healthy mice. The results were expressed as described in the Example 10.
experimental.readout: tissue uptake at 24 h (%ID/g)
Number only, in %ID/g; omit the unit.

Ask: Which tissue uptake at 24 h value is on record for C[C@@H](O)[C@@H]1NC(=O)[C@H](CCCCN)NC(=O)[C@@H](Cc2c[nH]c3ccccc23)NC(=O)[C@H](Cc2ccc(O)cc2)NC(=O)[C@@H](NC(=O)[C@@H](Cc2ccccc2)NC(=O)CCC(C(=O)O)N2CCN(CC(=O)O)CCN(CC(=O)O)CC2)CSSC[C@@H](C(=O)N[C@H](CO)[C@@H](C)O)NC1=O (single isomer, unassigned) [[^61/^64Cu]Cu-NODAGA-TOC, metal not drawn] ?
Reply: 0.03

* * *

Tested on: HT-1080.hFAP and HT-1080.wt xenografts
Assay: Quantitative biodistribution in HT-1080.hFAP and HT-1080.wt xenografted mice
Format: in vivo
Conditions: 4 h p.i., HT-1080.hFAP and HT-1080.wt xenografts
Method: The tumors were allowed to grow to an average volume of 100-200 mm3. Biodistribution Studies: The xenografted mice were randomized (n=5 per group) and injected intravenously via the tail vein with the ^61Cu-labeled radioligands (100 μL, […], 0.8-1MBq). Mice were euthanized 1h and 4h pi. by CO2 asphyxiation. Organs of interest and blood were collected, rinsed of excess blood, blotted dry, weighed, and counted in a 7-counter. […]
Here the recorded Biodistribution Heart is given for each entry.
Number only, in % IA/g; omit the unit.

Use the examples below as a reference point.
CN(C(=O)CCC(=O)NCCNC(=O)CC[C@H](C(=O)O)N1CCN2CCN(CC1)CC(=O)[O][61Cu][O]C(=O)C2)c1ccc2nccc(C(=O)NCC(=O)N3CC(F)(F)C[C@H]3C#N)c2c1 [[^61Cu]Cu-NODAGA-F2]    0.3
CN(CCCN1CCN(C(=O)CCC(C(=O)O)N2CCN3CCN(CC2)CC(=O)[O][61Cu][O]C(=O)C3)CC1)c1ccc2nccc(C(=O)NCC(=O)N3CC(F)(F)C[C@H]3C#N)c2c1 (stereo partly drawn) [[^61Cu]Cu-NODAGA-FAPI-46]    0.7

Proceeding to the next compound to report its Biodistribution Heart.
Ask: Report Biodistribution Heart for N#C[C@@H]1CC(F)(F)CN1C(=O)CNC(=O)c1ccnc2ccc(NC(=O)CCC(=O)NCCNC(=O)CC[C@H](C(=O)O)N3CCN4CCN(CC3)CC(=O)[O][61Cu][O]C(=O)C4)cc12 [[^61Cu]Cu-NODAGA-F1] tested on HT-1080.hFAP and HT-1080.wt xenografts.
Reply: 0.7

* * *

experiment: in vivo; conditions: athymic nude Foxn1+Foxn1+, mouse, iv, 20 umol, total radioactivity, Biodistribution Lung
Here the recorded tissue uptake at 4 h is given for each entry.
Write your answer as a measured quantity: the number, then the unit.

C[C@@H](O)[C@@H]1NC(=O)[C@H](CCCCN)NC(=O)[C@@H](Cc2ccc(NC(N)=O)cc2)NC(=O)[C@H](Cc2ccc(O)cc2)NC(=O)[C@H](NC(=O)[C@H](Cc2ccc(Cl)cc2)NC(=O)CCC(C(=O)O)N2CCN(CC(=O)O)CCN(CC(=O)O)CC2)CSSC[C@@H](C(=O)N[C@H](Cc2ccc(O)cc2)C(N)=O)NC1=O (some centres unmarked) [[^61Cu]Cu-NODAGA-LM3, metal not drawn]    0.32 %ID/g

Proceeding to the next compound to report its tissue uptake at 4 h.
Ask: Which tissue uptake at 4 h value is on record for C[C@@H](O)[C@@H]1NC(=O)[C@H](CCCCN)NC(=O)[C@@H](Cc2ccc(NC(N)=O)cc2)NC(=O)[C@H](Cc2ccc(O)cc2)NC(=O)[C@H](NC(=O)[C@H](Cc2ccc(Cl)cc2)NC(=O)CC[C@H](C(=O)O)N2CCN(CC(=O)O)CCN(CC(=O)O)CC2)CSSC[C@@H](C(=O)N[C@H](Cc2ccc(O)cc2)C(N)=O)NC1=O [[^61Cu]Cu-(R)-NODAGA-LM3, metal not drawn] ?
Reply: 0.42 %ID/g

* * *

system: HT-1080.hFAP and HT-1080.wt xenografts; test: Quantitative biodistribution in HT-1080.hFAP and HT-1080.wt xenografted mice; assay type: in vivo; conditions: 1 h p.i., HT-1080.hFAP and HT-1080.wt xenografts
experimental.readout: Biodistribution Femur (% IA/g)
Number only, in % IA/g; omit the unit.

CN(C(=O)CCC(=O)N1CCN(C(=O)CC[C@H](C(=O)O)N2CCN3CCN(CC2)CC(=O)[O][61Cu][O]C(=O)C3)CC1)c1ccc2nccc(C(=O)NCC(=O)N3CC(F)(F)C[C@H]3C#N)c2c1 [[^61Cu]Cu-NODAGA-F4]    3.2

Proceeding to the next compound to report its Biodistribution Femur.
Ask: Which Biodistribution Femur value is on record for CN(CCCN1CCN(C(=O)CCC(C(=O)O)N2CCN3CCN(CC2)CC(=O)[O][61Cu][O]C(=O)C3)CC1)c1ccc2nccc(C(=O)NCC(=O)N3CC(F)(F)C[C@H]3C#N)c2c1 (some centres unmarked) [[^61Cu]Cu-NODAGA-FAPI-46] ?
Reply: 6.5

* * *

tested on: HT-1080.hFAP and HT-1080.wt xenografts; test: Quantitative biodistribution in HT-1080.hFAP and HT-1080.wt xenografted mice; type: in vivo; conditions: 1 h p.i., HT-1080.hFAP and HT-1080.wt xenografts
Here the recorded Biodistribution Lung is given for each entry.
Number only, in % IA/g; omit the unit.

N#C[C@@H]1CC(F)(F)CN1C(=O)CNC(=O)c1ccnc2ccc(NC(=O)CCC(=O)N3CCN(C(=O)CC[C@H](C(=O)O)N4CCN5CCN(CC4)CC(=O)[O][61Cu][O]C(=O)C5)CC3)cc12 [[^61Cu]Cu-NODAGA-F3]    1.2

Ask: Which Biodistribution Lung value is on record for CN(CCCN1CCN(C(=O)CCC(C(=O)O)N2CCN3CCN(CC2)CC(=O)[O][61Cu][O]C(=O)C3)CC1)c1ccc2nccc(C(=O)NCC(=O)N3CC(F)(F)C[C@H]3C#N)c2c1 (some centres unmarked) [[^61Cu]Cu-NODAGA-FAPI-46] ?
Reply: 1.5

* * *

tested on: HT-1080.hFAP and HT-1080.wt xenografts; assay: Quantitative biodistribution in HT-1080.hFAP and HT-1080.wt xenografted mice; format: in vivo; settings: 4 hours p.i.
experimental.readout: Biodistribution Heart (% I.A./g)
Number only, in % I.A./g; omit the unit.

N#C[C@@H]1CC(F)(F)CN1C(=O)CNC(=O)c1ccnc2ccc(NC(=O)CCC(=O)NCCNC(=O)CC[C@H](C(=O)O)N3CCN4CCN(CC3)CC(=O)[O][61Cu][O]C(=O)C4)cc12 [[^61Cu]Cu-NODAGA-F1]    0.7

Ask: Report Biodistribution Heart for N#C[C@@H]1CC(F)(F)CN1C(=O)CNC(=O)c1ccnc2ccc(NC(=O)CCC(=O)N3CCN(C(=O)CC[C@H](C(=O)O)N4CCN5CCN(CC4)CC(=O)[O][61Cu][O]C(=O)C5)CC3)cc12 [[^61Cu]Cu-NODAGA-F3] tested on HT-1080.hFAP and HT-1080.wt xenografts.
Reply: 0.5

Ask: Report Biodistribution Heart for CN(C(=O)CCC(=O)N1CCN(C(=O)CC[C@H](C(=O)O)N2CCN3CCN(CC2)CC(=O)[O][61Cu][O]C(=O)C3)CC1)c1ccc2nccc(C(=O)NCC(=O)N3CC(F)(F)C[C@H]3C#N)c2c1 [[^61Cu]Cu-NODAGA-F4] tested on HT-1080.hFAP and HT-1080.wt xenografts.
Reply: 0.2

Ask: Report Biodistribution Heart for CN(C(=O)CCC(=O)NCCNC(=O)CC[C@H](C(=O)O)N1CCN2CCN(CC1)CC(=O)[O][61Cu][O]C(=O)C2)c1ccc2nccc(C(=O)NCC(=O)N3CC(F)(F)C[C@H]3C#N)c2c1 [[^61Cu]Cu-NODAGA-F2] tested on HT-1080.hFAP and HT-1080.wt xenografts.
Reply: 0.3

* * *

assay: Pharmacokinetics (biodistribution 1-24 h) in non-tumor bearing mice; type: in vivo; settings: female, BALB/c, mouse, muscle, 200 umol, total radioactivity; 1 hour after injection, ^61Cu; read-out: Biodistribution Muscles
experimental.readout: tissue uptake at 1 h (%ID/g)
Number only, in %ID/g; omit the unit.

Ask: Which tissue uptake at 1 h value is on record for C[C@@H](O)[C@@H]1NC(=O)[C@H](CCCCN)NC(=O)[C@@H](Cc2c[nH]c3ccccc23)NC(=O)[C@H](Cc2ccc(O)cc2)NC(=O)[C@@H](NC(=O)[C@@H](Cc2ccccc2)NC(=O)CCC(C(=O)O)N2CCN(CC(=O)O)CCN(CC(=O)O)CC2)CSSC[C@@H](C(=O)N[C@H](CO)[C@@H](C)O)NC1=O (single isomer, unassigned) [[^61/^64Cu]Cu-NODAGA-TOC, metal not drawn] ?
Reply: 0.16
